# experimental.target: human MC3R (human, UniProt P41968 1-323)
# Sequence (P41968 whole entry): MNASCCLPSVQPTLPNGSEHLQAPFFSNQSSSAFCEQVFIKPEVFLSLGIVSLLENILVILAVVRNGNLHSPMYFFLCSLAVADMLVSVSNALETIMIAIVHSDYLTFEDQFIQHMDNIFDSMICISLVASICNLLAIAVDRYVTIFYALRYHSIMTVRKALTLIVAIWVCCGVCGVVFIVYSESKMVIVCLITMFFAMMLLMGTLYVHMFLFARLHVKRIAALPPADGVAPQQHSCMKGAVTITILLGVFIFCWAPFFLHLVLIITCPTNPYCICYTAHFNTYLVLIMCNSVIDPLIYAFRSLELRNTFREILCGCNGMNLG
# assay.overview: cell-based or functional assay
Non-standard residues stand in square brackets, D forms with d. PKcap1 = N-terminal cap C18 diacid-γGlu-mPEG2; Nle = CCCC[C@H](N)C(=O)O
Readings of MC3R cAMP (EC50) for the listed binders
Numeric only. Scale: nM

# binder, MC3R cAMP (EC50) / nM
data = [
    ("H-YV[Nle][dA]HFR[dW]D-NH2 (SMILES CCCC[C@H](NC(=O)[C@@H](NC(=O)[C@@H](N)Cc1ccc(O)cc1)C(C)C)C(=O)N[C@H](C)C(=O)N[C@@H](Cc1c[nH]cn1)C(=O)N[C@@H](Cc1ccccc1)C(=O)N[C@@H](CCCNC(=N)N)C(=O)N[C@H](Cc1c[nH]c2ccccc12)C(=O)N[C@@H](CC(=O)O)C(N)=O) [CTX-1108]", 12),
    ("Ac-[Nle][dA]HFR[dW]DRF-NH2 (SMILES CCCC[C@H](NC(C)=O)C(=O)N[C@H](C)C(=O)N[C@@H](Cc1c[nH]cn1)C(=O)N[C@@H](Cc1ccccc1)C(=O)N[C@@H](CCCNC(=N)N)C(=O)N[C@H](Cc1c[nH]c2ccccc12)C(=O)N[C@@H](CC(=O)O)C(=O)N[C@@H](CCCNC(=N)N)C(=O)N[C@@H](Cc1ccccc1)C(N)=O) [CTX-1158]", 2.6),
    ("Ac-[Nle][dA]HFR[dW][Nle]RFG-OH (SMILES CCCC[C@H](NC(C)=O)C(=O)N[C@H](C)C(=O)N[C@@H](Cc1c[nH]cn1)C(=O)N[C@@H](Cc1ccccc1)C(=O)N[C@@H](CCCNC(=N)N)C(=O)N[C@H](Cc1c[nH]c2ccccc12)C(=O)N[C@@H](CCCC)C(=O)N[C@@H](CCCNC(=N)N)C(=O)N[C@@H](Cc1ccccc1)C(=O)NCC(=O)O) [CTX-1532]", 10.3),
    ("H-YVMGRFR[dW]DRFG-OH (SMILES CSCC[C@H](NC(=O)[C@@H](NC(=O)[C@@H](N)Cc1ccc(O)cc1)C(C)C)C(=O)NCC(=O)N[C@@H](CCCNC(=N)N)C(=O)N[C@@H](Cc1ccccc1)C(=O)N[C@@H](CCCNC(=N)N)C(=O)N[C@H](Cc1c[nH]c2ccccc12)C(=O)N[C@@H](CC(=O)O)C(=O)N[C@@H](CCCNC(=N)N)C(=O)N[C@@H](Cc1ccccc1)C(=O)NCC(=O)O) [CTX-1548]", 3.8),
    ("Ac-[Nle][dA]HFR[dW]GKPV-NH2 (SMILES CCCC[C@H](NC(C)=O)C(=O)N[C@H](C)C(=O)N[C@@H](Cc1c[nH]cn1)C(=O)N[C@@H](Cc1ccccc1)C(=O)N[C@@H](CCCNC(=N)N)C(=O)N[C@H](Cc1c[nH]c2ccccc12)C(=O)NCC(=O)N[C@@H](CCCCN)C(=O)N1CCC[C@H]1C(=O)N[C@H](C(N)=O)C(C)C) [CTX-1164]", 1.5),
]

Data request: For the binder PKcap1-GV[Nle][dA]HFR[dW]DRFG-OH [CTX-1149 (PKcap1, SEQ ID NO 40)] , report MC3R cAMP (EC50).
Data returned: 313
